Target: MCR-1 (Homo sapiens)
Construct: expressed in transfected cells; host or cells: HEK 293
Sequence (Q01726 whole entry): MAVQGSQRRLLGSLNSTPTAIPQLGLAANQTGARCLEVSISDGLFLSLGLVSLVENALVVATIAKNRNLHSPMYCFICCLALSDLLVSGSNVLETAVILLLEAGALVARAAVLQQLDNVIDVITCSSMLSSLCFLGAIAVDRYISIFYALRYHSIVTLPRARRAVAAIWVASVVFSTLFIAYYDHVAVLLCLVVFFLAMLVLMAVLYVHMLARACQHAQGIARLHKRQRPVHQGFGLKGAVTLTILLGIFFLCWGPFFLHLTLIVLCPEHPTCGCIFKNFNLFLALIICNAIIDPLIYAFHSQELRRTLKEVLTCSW
Experiment: Melanocortin receptor binding assay, competition with 125I-HP 467, HEK 293 cells expressing hMCR-1
Details: competition with 125I-HP 467, HEK 293 cells expressing MCR-1; read-out: MC-1 IC50
Protocol: All cell culture media and reagents were obtained from GibcoBRL (Gaithersburg Md.), except for COSMIC CALF SERUM (HyClone; Logan Utah). Cells were suspended in PBS, 10% COSMIC CALF SERUM and 1 mM CaCl2. […] To assay isoquinoline compounds, binding assays were performed in duplicate in a 96 well format. […] Cells were harvested on GF/B filter plates as described above and counted.
IC50: recorded values
ATTRIBUTE MEASURED: IC50 (nM)

compound="CCNc1ccc(C2C(CNC3CCCCC3)c3ccccc3CN2CCCCC(CN)NCCc2ccc3ccccc3c2)cc1 (stereo not shown) [TRG 2411-57]" unit_string=nM observed_result=920
compound="CCCNc1ccc(C2C(CNC3CCCCC3)c3ccccc3CN2CCCCC(CN)NC)cc1 (stereo not shown) [TRG 2409-20]" unit_string=nM observed_result=880
compound="COCCNC(CN)CCCCN1Cc2ccccc2C(CNCCc2ccccc2)C1c1ccc(-c2ccccc2)cc1 (stereo not shown) [TRG 2411-10]" unit_string=nM observed_result=1100
compound="CCNc1ccc(C2C(CN)c3ccccc3CN2CCCCC(CN)NCCc2ccc3ccccc3c2)cc1 (stereo not shown) [TRG 2411-69]" unit_string=nM observed_result=370

---

Target: MCR-1 (Homo sapiens)
Construct: expressed in transfected cells; host or cells: HEK 293
Assay: Melanocortin receptor binding assay, competition with 125I-HP 467, HEK 293 cells expressing hMCR-1
Settings: displacement of 125I-HP 467 at 10 μM isoquinoline compound; first of duplicate
Rule: measured % Disp. MC-1 10 μM below 40% gets condition met; anything equal to or greater than 40% gets condition not met.

molecule="NCCN1Cc2ccccc2C(CNC2CCCCC2)C1c1cccc(Oc2ccc(Cl)c(Cl)c2)c1 (centres unmarked)" assay_system="MCR-1 (Homo sapiens)" label_value="condition not met"
molecule="NCCN1Cc2ccccc2C(CNC2CCCCC2)C1c1ccc2ccccc2c1 (centres unmarked)" assay_system="MCR-1 (Homo sapiens)" label_value="condition not met"
molecule="CNC(CN)CN1Cc2ccccc2C(CNC2CCCCC2)C1c1ccc(OC)cc1 (centres unmarked)" assay_system="MCR-1 (Homo sapiens)" label_value="condition met"
molecule="COc1ccc(C2C(CNC3CCCCC3)c3ccccc3CN2CCN)cc1F (centres unmarked)" assay_system="MCR-1 (Homo sapiens)" label_value="condition met"
molecule="NCCN1Cc2ccccc2C(CNC2CCCCC2)C1c1cc2c3c(c1O)CCCN3CCC2 (centres unmarked)" assay_system="MCR-1 (Homo sapiens)" label_value="condition met"
molecule="CNC(CN)CN1Cc2ccccc2C(CNC2CCCCC2)C1c1ccc(Oc2ccccc2)cc1 (centres unmarked)" assay_system="MCR-1 (Homo sapiens)" label_value="condition not met"
molecule="NCCN1Cc2ccccc2C(CNC2CCCCC2)C1c1ccc2cccc(O)c2n1 (centres unmarked)" assay_system="MCR-1 (Homo sapiens)" label_value="condition met"
molecule="NCCN1Cc2ccccc2C(CNC2CCCCC2)C1c1cccc(O)c1 (centres unmarked)" assay_system="MCR-1 (Homo sapiens)" label_value="condition met"
molecule="CNC(CN)CN1Cc2ccccc2C(CNC2CCCCC2)C1c1ccc(-c2ccccc2)cc1 (centres unmarked)" assay_system="MCR-1 (Homo sapiens)" label_value="condition not met"
molecule="CNC(CN)CN1Cc2ccccc2C(CNC2CCCCC2)C1c1ccc(Br)cc1 (mixture of isomers)" assay_system="MCR-1 (Homo sapiens)" label_value="condition not met"
molecule="CNC(CN)CN1Cc2ccccc2C(CNC2CCCCC2)C1c1ccc(Cl)c(Cl)c1 (centres unmarked)" assay_system="MCR-1 (Homo sapiens)" label_value="condition not met"
molecule="NCCN1Cc2ccccc2C(CNC2CCCCC2)C1c1cccc2ccccc12 (centres unmarked)" assay_system="MCR-1 (Homo sapiens)" label_value="condition not met"
